Known CC50 of a selection of compounds
# assay.overview: NOVARTIS: Cytotoxicity against human hepatocellular carcinoma cell line (Huh7)
# Format: toxicity, cell-based, Huh-7
# assay.conditions: Huh7 cells (hepatocellular carcinoma cell line)
outcome.measure: CC50

>>> result("CC(=O)Nc1ccc(C(=O)N2CCC(Oc3cccc(CN(C)Cc4cccc5ccccc45)c3)CC2)cc1")
"> 10 µM"
>>> result("COc1ccc(Nc2nc(Nc3ccc(OC)cc3)c3ccccc3n2)cc1")
"2.1 µM"
>>> result("O=C(CN1CCC(NC(=O)c2cccc(F)c2)CC1)NC1CC1")
"> 10 µM"
>>> result("NC(=O)Oc1ccc(Cc2ccccc2)cc1")
"> 10 µM"
>>> result("CCCSCCCNC(=O)c1oc2c(c1C)-c1[nH]ncc1CC2")
"> 10 µM"

====

Readings of CC50 for the listed compounds
# assay.overview: NOVARTIS: Cytotoxicity against human hepatocellular carcinoma cell line (Huh7)
# Assay type: toxicity, cell-based, Huh-7
# assay.conditions: Huh7 cells (hepatocellular carcinoma cell line)
outcome.measure: CC50 (µM)

>>> measured_number("CC(C)CN(CC(=O)Nc1cc(C(C)(C)C)nn1-c1ccccc1)C(=O)COc1ccccc1")
17.6
>>> measured_number("CCCCNCCN1CCN(c2cc(OC)cc(OC)c2)C[C@@H]1Cc1ccccc1")
10.3

====

# assay.overview: NOVARTIS: Cytotoxicity against human hepatocellular carcinoma cell line (Huh7)
# Type: toxicity, cell-based, Huh-7
# assay.conditions: Huh7 cells (hepatocellular carcinoma cell line)
Parameter: CC50. Scope: all listed entries.
outcome.measure: CC50

>>> result("CC(=NNc1nc(-c2ccccc2O)nc2ccccc12)c1ccccc1O")
"> 100 µM"
>>> result("CC(=O)N(C)C1=C(N2CCOCC2)C(=O)c2ccccc2C1=O")
"0.59 µM"
>>> result("COc1ccc(CCNc2nc(NCCCN(C)C)ncc2C(=O)NCc2ccccc2)cc1OC")
"> 10 µM"
>>> result("COc1ccc(-n2nc(C(=O)NCc3ccccc3OC)c3ccccc3c2=O)cc1")
"> 100 µM"
>>> result("CCOc1ccc(C(=O)C(C)[n+]2cc(-c3ccc(Cl)cc3)n3c2CCC3)cc1 (configuration not stated)")
"> 78.3 µM"
>>> result("O=C1CC(c2ccccc2)CC2=C1C(c1ccccc1F)Nc1ccccc1N2 (configuration not stated)")
"> 100 µM"
>>> result("O=C(Nc1ccc(C2=NCCN2)c(Cl)c1)c1ccc(C(=O)Nc2ccc(C3=NCCN3)c(Cl)c2)cc1")
"> 10 µM"

====

# Tested on: Plasmodium falciparum
# assay.overview: NOVARTIS: Inhibition of Plasmodium falciparum 3D7 (drug-susceptible) proliferation in erythrocyte-based infection assay
# Format: functional, organism-based
# assay.conditions: Plasmodium falciparum, 3D7
pEC50: −log10 of the molar value.
outcome.measure: pEC50

>>> result("CCCCNCCOCCOc1ccc(Br)cc1")
"< 4.93"
>>> result("O=C(Nc1cccc(OC(=O)c2ccc([N+](=O)[O-])cc2)c1)c1ccc([N+](=O)[O-])cc1")
"< 4.90"
>>> result("CCCNC(=O)N1CCC2(CC1)CC(=O)c1ccccc1O2")
"< 5.90"
>>> result("CCOC(=O)c1sc(NC(=O)C(C)Sc2nnc(CNC(=O)c3ccc(OC)cc3)n2-c2ccccc2OC)c(C(=O)OCC)c1C (stereo unspecified)")
"< 5.90"
>>> result("CCOC(=O)CSc1nc2c(sc(=S)n2-c2ccc(Cl)c(C)c2)c(=O)n1-c1ccccc1OC")
"< 5.90"
>>> result("CC(C)NC(=O)[C@@H]1C[C@@H](NCc2cccnc2)CN1Cc1ccc2ccccc2c1")
"< 4.96"
>>> result("COC(=O)N(C)C(C)(C)C(C)=NOC(=O)c1ccccc1")
"< 5.79"
>>> result("CC(C)(C)NC(=O)C(c1ccncc1)N(Cc1ccccc1Cl)C(=O)c1ccc(-c2ccccc2)[nH]1 (stereo unspecified)")
"< 5.19"
>>> result("COc1ccc(/C=C2\\SC(=N)N(c3ccc4c(c3)OCO4)C2=O)cc1OC")
"< 5.76"
>>> result("Cc1cc(C)c(CSc2ncnc3[nH]cnc23)c(C)c1")
"< 5.82"
>>> result("Cc1ccc(-c2nnc(N3CCOCC3)c3ccccc23)cc1S(=O)(=O)N1CCN(C)CC1")
"< 5.90"
>>> result("CN(c1ccc(Br)cc1)S(=O)(=O)c1ccc2[nH]cc(C(=O)N3CCN(c4ccccc4)CC3)c(=O)c2c1")
"< 5.90"
>>> result("Cc1c(C(=O)N2CCC(C)CC2)sc2ncn(CC(=O)N3CCN(c4ccccn4)CC3)c(=O)c12")
"< 5.90"
>>> result("CCc1c(C)nc(SCC(=O)NNC(C)=O)nc1O")
"< 5.90"
>>> result("Cc1ccc(Cl)cc1-n1c(SCc2ccccc2)nnc1C(Cc1ccccc1)NC(=O)C12CC3CC(CC(C3)C1)C2 (stereo unspecified)")
"< 5.90"
>>> result("CCOc1ccc2[nH]c3c(NCCCN4CCOCC4)ncnc3c2c1")
6.13
>>> result("COc1ccc(NC(=O)Cn2c(-c3ccc(OC)cc3)cn(-c3ccc(C)cc3)c2=O)cc1")
6.05
>>> result("CCOc1ccc(N2C(N)=NC(N)=NC2(C)C)cc1")
7.10
>>> result("CC(=O)Nc1sc(C)c(C)c1N=Nc1ccc(S(=O)(=O)O)cc1")
5.94
>>> result("COc1ccc2c(c1)c(C)cc[n+]2Cc1ccccc1")
7.06
>>> result("COC(=O)C1=C(C)NC2=C(C(=O)CC(C)(C)C2)C1c1ccccc1[N+](=O)[O-] (stereo unspecified)")
"< 4.90"

====

# System: Plasmodium falciparum
# assay.overview: NOVARTIS: Inhibition of Plasmodium falciparum 3D7 (drug-susceptible) proliferation in erythrocyte-based infection assay
# Format: functional, organism-based
# assay.conditions: Plasmodium falciparum, 3D7
pEC50: −log10 of the molar value.
outcome.measure: pEC50

>>> result("O=C(Nc1ccc(N2CCCCC2)cc1)N1CCc2nc[nH]c2C1")
"< 5.90"
>>> result("Cc1cc(C)c(S(=O)(=O)NCc2ccc(Cl)cc2)c(C)c1")
"< 4.90"
>>> result("O=C(Nc1ccc(Cl)cc1)Nc1ccc(Br)cn1")
"< 4.90"
>>> result("CC(=O)Nc1ccc(S(=O)(=O)NC2C(C)(C)C3CC[C@]2(C)C3)cc1 (some centres undefined)")
"< 5.90"

====

# Test system: Plasmodium falciparum
# assay.overview: NOVARTIS: Inhibition of Plasmodium falciparum W2 (drug-resistant) proliferation in erythrocyte-based infection assay
# Type: functional, organism-based
# assay.conditions: Plasmodium falciparum, W2; read-out: EC50
outcome.measure: EC50

>>> result("Cc1c(NC(=S)N2CCOCC2)c(=O)n(-c2ccccc2)n1C")
"> 1.25 µM"
>>> result("COc1ccc(CN2CCc3nnc(CCc4ccccc4)n3CC2)c(F)c1")
"> 1.25 µM"
>>> result("CC(C)CC(NC(=O)/C(=C\\c1ccco1)NC(=O)c1ccccc1)C(=O)OCc1ccccc1 (stereo not given)")
"> 0.625 µM"
>>> result("C=CCNC(=O)CSc1ccc(C(=O)Nc2ccc(Cl)cc2F)cc1[N+](=O)[O-]")
"> 1.63 µM"
>>> result("O=c1c(=O)n(Cc2cccc(C(F)(F)F)c2)ccn1CCc1ccccc1")
"> 1.25 µM"

====

# System: Plasmodium falciparum
# assay.overview: NOVARTIS: Inhibition of Plasmodium falciparum 3D7 (drug-susceptible) proliferation in erythrocyte-based infection assay
# Type: functional, organism-based
# assay.conditions: Plasmodium falciparum, 3D7
compounds and their reported EC50
outcome.measure: EC50 (nM)

>>> measured_number("COc1ccc(Nc2nc(NN=Cc3cccc(F)c3)nc(Nc3ccc([N+](=O)[O-])cc3)n2)cc1")
662
>>> measured_number("N#CC(=Cc1ccc(Sc2ccccc2)o1)c1nc2ccccc2[nH]1")
1050
>>> measured_number("O=C(O)[C@@H]1C[C@H](CP(=O)(O)O)CCN1")
1320
>>> measured_number("OC1(c2ccc(Cl)c(C(F)(F)F)c2)CCN(CCOC2c3ccccc3CSc3ccc(Cl)cc32)CC1 (centres undefined)")
1010

====

# assay.overview: NOVARTIS: Cytotoxicity against human hepatocellular carcinoma cell line (Huh7)
# Type: toxicity, cell-based, Huh-7
# assay.conditions: Huh7 cells (hepatocellular carcinoma cell line)
// reported CC50 per item
outcome.measure: CC50

>>> result("COc1ccc(C2CC(=O)C3=C(C2)NC(C)=C(C(=O)OC(C)C)C3c2ccccc2Br)cc1 (configuration not stated)")
"> 100 µM"
>>> result("O=C(CSc1ccc(Cl)cc1)NN=C1C(=O)Nc2ccccc21")
"> 100 µM"
>>> result("O=C(OCCOc1ccc([N+](=O)[O-])cc1)c1ccc(Br)o1")
"> 10 µM"
>>> result("CC(=NNC(=S)N(C)C)c1ccccn1")
"> 10 µM"
>>> result("CC(C)CNc1nc(NCCCN2CCCC2)ncc1C(=O)NCCc1ccccc1")
"> 10 µM"
>>> result("COc1ccc(OCC(O)CNC2CCN(CC(O)COc3ccc(Cl)c(Cl)c3)CC2)cc1 (configuration not stated)")
"9.14 µM"
>>> result("CC(=O)N(C1=C(N2CCCCC2)C(=O)c2ccccc2C1=O)c1ccccc1C")
"20.2 µM"
>>> result("CCc1ccc(C(=O)N(CCc2ccccc2)C(CC)c2nc3ccccc3c(=O)n2-c2ccccc2OC)cc1 (configuration not stated)")
"> 9.7 µM"
>>> result("OC1=C2C(=Nc3ccccc3SC2c2ccc(Br)cc2)c2ccccc21 (configuration not stated)")
"> 48 µM"
>>> result("COc1cc2nc(NCc3ccccc3)n3nc(-c4cccnc4)nc3c2cc1OC")
"> 100 µM"
>>> result("O=C(NC1CC1)c1ccc(N2C(=O)C3C4c5ccccc5C(c5ccccc54)C3C2=O)cc1 (configuration not stated)")
"> 10 µM"
>>> result("CCC(=O)N=c1sc2cc([N+](=O)[O-])ccc2n1CCOC")
"> 10 µM"
>>> result("CCOC(=O)C1CSC(c2ccc(C(F)(F)F)cc2)N1C(=O)/C=C/c1ccccc1 (configuration not stated)")
"> 7.95 µM"
>>> result("CCN(CC)c1cc(-c2ccccn2)nc(-c2ccccn2)n1")
"> 10 µM"
>>> result("CC(C)NC(=O)CN(C)C1c2ccccc2CCc2ccccc21")
"> 9.18 µM"
>>> result("CC(C)(C)NC(=O)c1cn(C2CCCCC2)cc(C(=O)NC2CCN(Cc3ccccc3)C2)c1=O (configuration not stated)")
"> 10 µM"
>>> result("C=CCC(=O)NC1CCN(CC(O)CN(Cc2ccccc2)S(=O)(=O)c2ccccc2)C1 (configuration not stated)")
"> 100 µM"
>>> result("CCc1cc2c(Sc3nnc(N)s3)ncnc2s1")
"> 10 µM"
>>> result("COc1cc2c(N3CCOCC3)cc(O)c(CC(=O)Nc3ccccc3)c2cc1OC")
"> 100 µM"
>>> result("CN(C)CCNC(=O)c1ccc(-c2cccc3c2sc2ccccc23)nc1N1CCN(CCO)CC1")
"5.32 µM"
>>> result("CC1(C)C(=O)C2(CCCCC2)C(=O)OC1/C=C/c1ccccc1 (configuration not stated)")
"> 10 µM"
>>> result("COc1cccc(CNCCCCCCCCCCCCNCc2cccc(OC)c2O)c1O")
"53.5 µM"
>>> result("O=C1N(Cc2cc3ccccc3s2)CC2CN(Cc3cccc4c3OCO4)CCN12 (configuration not stated)")
"> 10 µM"
>>> result("Cn1c(=O)c2c(nc(N3CCN(C(=O)Nc4ccc(F)cc4F)CC3)n2C)n(C)c1=O")
"> 10 µM"
>>> result("Cc1cccc(-c2nc3cc(NC(=O)c4ccc([N+](=O)[O-])o4)ccc3o2)c1")
"> 100 µM"
>>> result("O=C(NCCCCNc1ccnc2cc(Cl)ccc12)c1ccccc1Br")
"> 10 µM"
>>> result("CN(C(=O)CCNC(=O)Cn1cnc2ccccc2c1=O)C1CCCCC1")
"> 10 µM"
